Test: qHTS for differential inhibitors of proliferation of Plasmodium falciparum line D10 (AID 1877);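 also: parasites grown with compound for 72 h before DNA staining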
Details: series mostly up to 28.7 µM
Inconclusive results are not listed. Active and inactive are the calls of the source. Calls follow the shape of the dose curve; as a rule, active = well fitted curve in the direction sought with a large enough effect; inconclusive = small, poorly fitted or top-dose-only effect, or another doubt; inactive = no such curve, though single readings can be large or run the other way.
Field 'call' accepts yes (1) for active, no (0) for inactive

Previously resolved entries follow.
### Prompt Any idea what this test logged for CCCCS(=N)(=O)CC[C@H](N)C(=O)O (some centres not stated) ?
### Response no (0)

### Prompt Any idea what this test logged for Nn1nnc2ccccc21 ?
### Response yes (1)

### Prompt Any idea what this test logged for O=C(O)/C=C/c1ccc(O)c(O)c1 ?
### Response no (0)

### Prompt Any idea what this test logged for O=C(O)C1=CCCN(CCON=C(c2ccccc2)c2ccccc2)C1 ?
### Response no (0)

### Prompt Any idea what this test logged for O=c1ccn([C@@H]2O[C@H](COP(=O)(O)OP(=O)(O)O)[C@@H](O)[C@H]2O)c(=O)[nH]1 ?
### Response no (0)

Next:
### Prompt Any idea what this test logged for NCCC1CCCC(CCN)N1 (configuration not stated) ?
### Response no (0)

### Prompt Any idea what this test logged for NC(Cc1cccc(-c2ccccc2CP(=O)(O)O)c1)C(=O)O (configuration not stated) ?
### Response no (0)
